Where these numbers come from: the supplement of paper PMC9170038

# Tested on: K4 kissing-loop RNA reporter;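 also: bound reporter read as fluorescence of individual clusters on recovered sequencing chips by microscopy, with normalized cluster intensities fitted with a binding model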
# Test Protocol: apparent KD of K4 kissing-loop reporter; higher = weaker reporter binding
# Assay Setup: Eterna round: R107; input ligand: none

{"columns": ["Residue Sequence", "Unit Spec", "apparent KD of K4 kissing-loop reporter"],
 "data": [
  ["GACGGGCAGUGAUGUUGCCGGUCUCUUGGACGAGGACCGGUACGGCCGCCACUCGAUCUGAUGCAAGAAUCGCAUCUUUUAAUAA [Biququan]", "nM", 166],
  ["UAGUCCUAGUGAUCCUUAUCAAGUGGUGGGCGAGGACCGGUACGGCCGCCACUCGAAUAUGCAGUGAUGUUGUAAUCCGGAUAAU [Exclusion - Tryptophan A (Freestyle 10)]", "nM", 727],
  ["AAAUAAAGCAGUCAGCCAGUGAUGUUGGAAGGAGCGUGCGAAAGCACAGGUAGGUCGCCAAAACCUAAUACUGGCUGCUAAAUAA [#SwitchBubble 1 #K4Early]", "nM", 773]
]}
